# METHOD: Microsomal stability, mouse liver microsomes
# ASSAY CONDITIONS: female, mouse, mouse liver microsomes batch MDO female (Bioreclamation IVT), 60 min

ITEM SMILES	microsomal CLint / µL/min/mg
[2H]C([2H])(CC(C)(C)O)n1ncc(-c2onc(-c3c(F)cccc3Cl)c2-c2ncccn2)c1C(F)(F)F	50.3

----------
# METHOD: Rat pharmacokinetics, oral or intravenous cassette dosing
# Type: in vivo, rats (strain Wistar RjHAN)
# ASSAY CONDITIONS: Wistar RjHAN, rat, plasma; female rats, po 5 mg/kg

ITEM SMILES	CL/F (mL/min/kg)
[2H]C([2H])(CC(C)(C)O)n1ncc(-c2onc(-c3c(F)cccc3Cl)c2-c2ncccn2)c1C(F)(F)F	132
